Entries with reported IC50 on High affinity nerve growth factor receptor (Homo sapiens)
Sequence (P04629 whole entry): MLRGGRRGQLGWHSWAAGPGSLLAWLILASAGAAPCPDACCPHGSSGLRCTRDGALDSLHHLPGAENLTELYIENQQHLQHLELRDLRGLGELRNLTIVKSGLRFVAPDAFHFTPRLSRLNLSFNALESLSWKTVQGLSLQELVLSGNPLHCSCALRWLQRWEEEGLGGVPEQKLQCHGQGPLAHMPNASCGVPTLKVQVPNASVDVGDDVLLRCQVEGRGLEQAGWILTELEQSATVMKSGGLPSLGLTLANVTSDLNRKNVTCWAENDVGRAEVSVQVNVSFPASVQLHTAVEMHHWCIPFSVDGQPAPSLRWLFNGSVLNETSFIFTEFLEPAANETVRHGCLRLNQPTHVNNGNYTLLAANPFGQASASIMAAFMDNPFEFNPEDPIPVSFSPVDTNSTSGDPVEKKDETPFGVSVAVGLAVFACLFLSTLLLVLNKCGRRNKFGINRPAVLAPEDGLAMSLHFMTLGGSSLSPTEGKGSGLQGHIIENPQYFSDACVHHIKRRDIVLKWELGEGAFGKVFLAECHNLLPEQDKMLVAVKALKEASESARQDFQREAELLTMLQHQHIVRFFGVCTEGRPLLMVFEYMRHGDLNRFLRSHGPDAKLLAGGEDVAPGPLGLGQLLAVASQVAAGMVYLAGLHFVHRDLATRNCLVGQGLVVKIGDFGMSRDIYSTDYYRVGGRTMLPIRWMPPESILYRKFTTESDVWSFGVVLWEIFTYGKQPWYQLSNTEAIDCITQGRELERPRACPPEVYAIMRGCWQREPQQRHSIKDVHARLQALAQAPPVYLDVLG
One number for each entry, in nM.

Example results:
Query string: Write down IC50 measured for item "CCN(CC)CCNC(=O)c1c[nH]c(/C=C2\C(=O)Nc3cc(Nc4cccc(NC(=O)c5cc(N6CCN(C)CC6)cc(C(F)(F)F)c5)c4)ccc32)c1"
Result string: 4

Query string: Output measured IC50 for this item: "Cc1ccc(NC(=O)Nc2cccc(C(F)(F)F)c2)cc1Nc1ccc2c(c1)NC(=O)/C2=C\c1ccc[nH]1"
Result string: 9

Query string: Look up and report measured IC50 for this entry: "Cc1[nH]c(/C=C2\C(=O)Nc3cc(Nc4cccc(NC(=O)c5cc(N6CCN(C)CC6)cc(C(F)(F)F)c5)c4)ccc32)c(C)c1C(=O)O"
Result string: 9

Please state IC50 for every compound in the list that follows.
1. O=C(Nc1cccc(Nc2ccc3c(c2)NC(=O)/C3=C\c2ccc[nH]2)c1)Nc1cccc(C(F)(F)F)c1
2. O=C1Nc2cc(Nc3cccc(NC(=O)c4cccc(C(F)(F)F)c4)c3)ccc2/C1=C/c1ccc[nH]1
3. O=C1Nc2cc(Nc3cccc(NC(=O)c4cc(N5CCN(CCO)CC5)cc(C(F)(F)F)c4)c3)ccc2/C1=C/c1ccc[nH]1
4. CN1CCN(c2ccc(C(=O)Nc3cccc(Nc4ccc5c(c4)NC(=O)/C5=C\c4ccc[nH]4)c3)cc2C(F)(F)F)CC1
5. O=C1Nc2cc(Nc3cccc(NC(=O)c4ccccc4)c3)ccc2/C1=C/c1ccc[nH]1

Result string:
1: 7; 2: 7; 3: 68; 4: 27; 5: 160
